hCD71:HSA for assorted binders
Biological target: T1, human CD71 extracellular domain (human, UniProt P02786 89-760, biotinylated)
T1 construct: extracellular domain; also called hCD71; huCD71 ECD
T1 sequence (P02786 other isoform, or with tags, fused parts or gaps): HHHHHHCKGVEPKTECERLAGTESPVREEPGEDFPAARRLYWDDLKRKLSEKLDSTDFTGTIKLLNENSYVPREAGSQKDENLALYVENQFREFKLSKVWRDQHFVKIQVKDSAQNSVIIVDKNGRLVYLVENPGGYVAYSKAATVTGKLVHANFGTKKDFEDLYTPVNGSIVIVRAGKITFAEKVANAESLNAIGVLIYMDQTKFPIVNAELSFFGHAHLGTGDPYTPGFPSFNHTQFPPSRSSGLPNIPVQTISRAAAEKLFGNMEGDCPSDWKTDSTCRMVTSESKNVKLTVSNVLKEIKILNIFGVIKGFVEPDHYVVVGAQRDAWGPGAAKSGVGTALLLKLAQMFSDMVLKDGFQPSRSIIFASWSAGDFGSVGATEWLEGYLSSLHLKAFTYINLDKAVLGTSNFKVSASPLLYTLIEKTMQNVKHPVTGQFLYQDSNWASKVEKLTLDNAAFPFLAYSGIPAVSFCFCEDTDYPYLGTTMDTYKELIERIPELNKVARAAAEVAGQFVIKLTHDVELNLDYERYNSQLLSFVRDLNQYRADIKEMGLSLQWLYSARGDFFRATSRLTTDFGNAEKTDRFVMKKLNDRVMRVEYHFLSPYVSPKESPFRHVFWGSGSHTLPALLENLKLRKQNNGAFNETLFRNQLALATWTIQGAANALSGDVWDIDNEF
Experiment: solution ELISA screen, signal ratio to HSA control
Write the answer as a number in ratio, unit excluded.

Solved cases (5 shown):
[
  {
    "BINDER": "SEQ ID NO 270 (designed binder, not shown: small tags and cut ends) MLPAPKNLVVSRVTEDSARLSWTAPDAAFDSFAIEYCETKMCGEAIVLTVPGSERSYDLTGLKPGTEYRVPIPGVKGGTASLPLSAIFTT",
    "REPORTED METRIC": "hCD71:HSA",
    "VALUE MEASURED": 51.6
  },
  {
    "BINDER": "SEQ ID NO 257 (designed binder, not shown: small tags and cut ends) MLPAPKNLVVSRVTEDSARLSWTAPDAAFDSFYIAYAEPRPDGEAIQLGVPGSERSYDLTGLKPGTEYSVLIHGVKGGLLSSPLRAYFTT",
    "REPORTED METRIC": "hCD71:HSA",
    "VALUE MEASURED": 26.9
  },
  {
    "BINDER": "SEQ ID NO 215 (designed binder, not shown: small tags and cut ends) MLPAPKNLVVSRVTEDSARLSWTAPDAAFDSFYIAYAEPRPDGEAIVLWVPGSERSYDLTGLKPGTEYSVLIHGVKGGLLSSPLIAEFTT",
    "REPORTED METRIC": "hCD71:HSA",
    "VALUE MEASURED": 90.4
  },
  {
    "BINDER": "SEQ ID NO 206 (designed binder, not shown: small tags and cut ends) MLPAPKNLVVSRVTEDSARLSWTAPDAAFDSFYIAYAEPRPDGEAIGLDVPGSERSYDLTGLKPGTEYSVLIHGVKGGLLSSPLSAIFTT",
    "REPORTED METRIC": "hCD71:HSA",
    "VALUE MEASURED": 59.1
  },
  {
    "BINDER": "SEQ ID NO 260 (designed binder, not shown: small tags and cut ends) MLPAPKNLVVSRVTEDSARLSWTAPDAAFDSFYIAYAEPRPDGEAIHLRVPGSERSYDLTGLKPGTEYNVTIQGVKGGFPSMPLSAIFTT",
    "REPORTED METRIC": "hCD71:HSA",
    "VALUE MEASURED": 146
  }
]

Then this binder:
So, SEQ ID NO 203 (designed binder, not shown: small tags and cut ends) MLPAPKNLVVSRVTEDSARLSWTAPDAAFDSFFIGYLEPQPPGEAIVLLVPGSERSYDLTGLKPGTEYNVTIQGVKGGFPSVPLAAFFTT ? Its hCD71:HSA was 91.6

Data origin, for the record: patent US20220332795A1
